// reported viscosity for each item listed
Conditions: 363.15 K; 101.33 kPa; Liquid
A number alone suffices; assume mPa·s.

Check out these entries, answers already filled in.
MOLECULE: CCCC[P+](CCCC)(CCCC)CCCC.NCCCC[C@H](N)C(=O)[O-] [tetrabutylphosphonium L-lysinate]
UNITS OF MEASURE: mPa·s
viscosity: 27.5

MOLECULE: CCCC[P+](CCCC)(CCCC)CCCC.N[C@@H](CS)C(=O)[O-] [tetrabutylphosphonium L-cysteinate]
UNITS OF MEASURE: mPa·s
viscosity: 46.6

MOLECULE: CCCC[N+](C)(CCCC)CCCC.NCCS(=O)(=O)[O-] [N,N-dibutyl-N-methyl-1-butanaminium 2-aminoethanesulfonate]
UNITS OF MEASURE: mPa·s
viscosity: 66.8

MOLECULE: CCCC[P+](CCCC)(CCCC)CCCC.NCCS(=O)(=O)[O-] [tetrabutylphosphonium 2-aminoethanesulfonate]
UNITS OF MEASURE: mPa·s
viscosity: 29.6

MOLECULE: CCCC[N+](C)(CCCC)CCCC.NCCCC[C@H](N)C(=O)[O-] [N,N-dibutyl-N-methyl-1-butanaminium L-lysinate]
UNITS OF MEASURE: mPa·s
viscosity: 43.9

MOLECULE: CCCC[P+](CCCC)(CCCC)CCCC.O=C([O-])[C@@H]1CCCN1 [tetrabutylphosphonium L-prolinate]
UNITS OF MEASURE: mPa·s
viscosity: 32.2

MOLECULE: CCCC[N+](C)(CCCC)CCCC.N[C@@H](CO)C(=O)[O-] [N,N-dibutyl-N-methylbutanaminium L-serinate]
UNITS OF MEASURE: mPa·s
viscosity: 64.3

MOLECULE: CCCC[P+](CCCC)(CCCC)CCCC.N[C@@H](CO)C(=O)[O-] [tetrabutylphosphonium L-serinate]
UNITS OF MEASURE: mPa·s
viscosity: 34.1

MOLECULE: CCCC[N+](C)(CCCC)CCCC.C[C@@H](O)[C@H](N)C(=O)[O-] [N,N-dibutyl-N-methyl-1-butanaminium L-threoninate]
UNITS OF MEASURE: mPa·s
viscosity: 66.2

MOLECULE: CCCC[P+](CCCC)(CCCC)CCCC.C[C@@H](O)[C@H](N)C(=O)[O-] [tetrabutylphosphonium L-threoninate]
UNITS OF MEASURE: mPa·s
viscosity: 25.1

# input For the molecule CC(C)[C@H](N)C(=O)[O-].CCCC[P+](CCCC)(CCCC)CCCC [tetrabutylphosphonium L-valinate] , what viscosity is on record?
# output 20.3

====

// reported mass density for each item listed
Conditions: 323.15 K; 101.33 kPa; Liquid; Vibrating tube method
± gives the expanded uncertainty stated by the source.

COMPOUND: CCCC[P+](CCCC)(CCCC)CCCC.NCCS(=O)(=O)[O-] [tetrabutylphosphonium 2-aminoethanesulfonate]
mass density: 1011.5 ± 5.5 kg/m3
--
COMPOUND: CCCC[P+](CCCC)(CCCC)CCCC.O=C([O-])[C@@H]1CCCN1 [tetrabutylphosphonium L-prolinate]
mass density: 976.9 ± 5.2 kg/m3
--
COMPOUND: CCCC[P+](CCCC)(CCCC)CCCC.N[C@@H](CO)C(=O)[O-] [tetrabutylphosphonium L-serinate]
mass density: 976.9 ± 5.2 kg/m3

Turning now to a further record.
# input For the compound CCCC[N+](C)(CCCC)CCCC.N[C@@H](CO)C(=O)[O-] [N,N-dibutyl-N-methylbutanaminium L-serinate] , what mass density is on record?
# output 999.9 ± 5.4 kg/m3
